- procedure_summary: ELISA with TSA 1, 2, and 3 bound to ovalbumin
- Assay type: binding
metric: binding specificity by ELISA

Q: For the molecule Mab 15A10: mouse monoclonal anti-cocaine catalytic antibody elicited by TSA 1; most active (antibody, V domains shown, mouse) VH: SGPELVKPGASVKVSCKASGYSFTDYNMYWVKQNHGESLEWIAYIDPSNGDTFYNQKFQGKATVTLDKSSSTAFMHLNSLTSEDSAVYYCARGGGLFAFWGQGTLVTVSA VL: AVVTQESALTTSPGETVTLTCRSSTGTITSDNYANWVQEKPDHLFSGLIGVNNYRPPGVPARFSGSLTGDKAVLTITGAQTEDEAIYFCALWYSNHWVFGGGTKLTVLG , give its reported binding specificity by ELISA.
Ans: bound only TSA-1 and 3

Q: In one line, give reported binding specificity by ELISA of the entry Mab 9A3: anti-cocaine catalytic monoclonal antibody elicited by TSA 1 (antibody, V domains shown, mouse) VH: SGPELVKPGASVKLSCKASGYPFTDYNMYWVKQSHGKSLEWIGYIDPSNGGIFYNQKFKGRATLTVDKSSNTAFMHLNSLTSEDSAVYYCARGGGLFAYWGQGTLVTVSE VL: TWPGETVTLTCRSSTGTITTSNYANWVQEKPDHLFSGLIGINNNRPPGVPARFSGSLIGDKAVLTITGAQTEDEAIYFCALWYSNHWVFGGGTKLTVLG .
Ans: bound only TSA-1 and 3

Q: Could you please provide reported binding specificity by ELISA for Mab 8G4G: anti-cocaine catalytic monoclonal antibody elicited by TSA 3 (antibody, mouse) heavy: VQLLESGAELVKPGASVELSCRTSGYTFTTYYIYWVKQRPGQGLEWIGGMNPGNGVTYFNEKFKNRATLTVDRSSSIAYMQLSSLTSEDSAVYYCTRVGNSLLTGAEGLWSLSLQ light: TRAGETVTLTCRSSSGTITANNYGSWVQEKPDHLFTGLIGVSNNRGPGVPARFSGSLIGDKAVLTITGGQTEDEAIYFCALWNSNHFVFGGGTKLTVLGQ ? Thanks!
Ans: bound only TSA-1 and 3
